# measurement-target: CDK12 (Homo sapiens)
# Sequence (Q9NYV4 whole entry): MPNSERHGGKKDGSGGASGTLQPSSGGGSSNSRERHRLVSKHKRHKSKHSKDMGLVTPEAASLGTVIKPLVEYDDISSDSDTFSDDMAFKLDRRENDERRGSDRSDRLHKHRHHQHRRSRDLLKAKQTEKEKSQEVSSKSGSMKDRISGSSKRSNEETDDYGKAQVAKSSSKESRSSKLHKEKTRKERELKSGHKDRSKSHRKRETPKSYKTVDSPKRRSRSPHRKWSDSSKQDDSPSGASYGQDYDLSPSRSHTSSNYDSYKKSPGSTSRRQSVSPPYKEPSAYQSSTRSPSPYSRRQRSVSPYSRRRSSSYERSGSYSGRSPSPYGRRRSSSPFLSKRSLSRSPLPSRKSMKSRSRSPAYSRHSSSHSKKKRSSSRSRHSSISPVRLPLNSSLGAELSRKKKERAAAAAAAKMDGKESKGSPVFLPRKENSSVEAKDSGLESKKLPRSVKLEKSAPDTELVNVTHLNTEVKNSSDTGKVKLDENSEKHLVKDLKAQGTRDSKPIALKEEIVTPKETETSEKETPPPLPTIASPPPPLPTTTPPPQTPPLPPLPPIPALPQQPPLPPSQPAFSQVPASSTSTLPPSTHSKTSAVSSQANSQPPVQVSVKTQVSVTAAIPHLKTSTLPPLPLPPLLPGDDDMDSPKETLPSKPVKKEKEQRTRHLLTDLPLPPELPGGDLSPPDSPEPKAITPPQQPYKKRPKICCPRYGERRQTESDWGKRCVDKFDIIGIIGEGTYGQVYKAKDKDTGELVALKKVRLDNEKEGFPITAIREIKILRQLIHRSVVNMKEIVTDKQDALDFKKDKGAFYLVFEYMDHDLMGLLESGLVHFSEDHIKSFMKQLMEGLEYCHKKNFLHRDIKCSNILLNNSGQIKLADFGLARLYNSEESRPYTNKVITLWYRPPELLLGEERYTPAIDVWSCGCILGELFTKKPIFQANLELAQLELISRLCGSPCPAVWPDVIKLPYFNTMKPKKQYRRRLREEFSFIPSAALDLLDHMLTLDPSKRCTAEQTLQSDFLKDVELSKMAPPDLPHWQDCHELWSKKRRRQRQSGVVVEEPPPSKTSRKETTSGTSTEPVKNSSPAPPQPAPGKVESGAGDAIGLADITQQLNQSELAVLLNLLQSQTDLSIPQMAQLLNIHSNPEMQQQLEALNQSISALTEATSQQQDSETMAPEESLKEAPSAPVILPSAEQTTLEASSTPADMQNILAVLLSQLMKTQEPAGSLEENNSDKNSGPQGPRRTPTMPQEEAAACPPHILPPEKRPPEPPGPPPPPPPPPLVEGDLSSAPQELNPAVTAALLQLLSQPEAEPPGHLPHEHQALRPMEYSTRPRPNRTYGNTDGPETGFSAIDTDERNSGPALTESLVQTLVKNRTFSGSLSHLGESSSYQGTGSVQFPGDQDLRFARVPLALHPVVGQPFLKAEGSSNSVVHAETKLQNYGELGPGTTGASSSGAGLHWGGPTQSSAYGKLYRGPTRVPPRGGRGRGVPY
# Sequence (O75909 whole entry partner): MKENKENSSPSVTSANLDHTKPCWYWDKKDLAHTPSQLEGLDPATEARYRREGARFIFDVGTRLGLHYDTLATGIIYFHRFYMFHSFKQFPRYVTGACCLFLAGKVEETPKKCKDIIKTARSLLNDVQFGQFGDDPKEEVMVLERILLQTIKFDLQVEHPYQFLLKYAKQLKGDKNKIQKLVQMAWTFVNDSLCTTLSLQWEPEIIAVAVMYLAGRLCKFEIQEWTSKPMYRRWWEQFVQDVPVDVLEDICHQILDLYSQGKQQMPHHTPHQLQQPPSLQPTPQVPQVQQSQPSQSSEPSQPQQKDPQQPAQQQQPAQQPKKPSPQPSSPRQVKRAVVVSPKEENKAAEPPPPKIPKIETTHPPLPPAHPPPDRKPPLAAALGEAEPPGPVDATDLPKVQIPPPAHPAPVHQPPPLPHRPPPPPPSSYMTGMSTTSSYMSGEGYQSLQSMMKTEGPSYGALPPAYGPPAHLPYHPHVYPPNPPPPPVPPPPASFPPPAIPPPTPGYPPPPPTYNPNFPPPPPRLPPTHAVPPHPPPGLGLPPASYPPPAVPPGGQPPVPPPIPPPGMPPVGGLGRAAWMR
# protocol-summary: Biochemical assay for CDK12 (LANCE TR-FRET, IC50 determination)
# applied-conditions: CDK12, IC50 class; read-out: IC50 μM (in range)
In this section we review reported IC50 values for a set of compounds.

# annotated cases, reported IC50 shown
- compound: "COc1cc(NC(=O)Cc2cnc(C3CCN(C#N)CC3)c(OC)c2)ncc1Cl"
  IC50: "< 0.01 µM"
- compound: "COC[C@H](C)Oc1cc(NC(=O)Cc2ccc(C3=CCCN(C#N)C3)nc2)ncc1Cl"
  IC50: "< 0.01 µM"

For the next question, use this compound.
Consider the compound CC1(C)CCC(Oc2cc(NC(=O)Cc3ccc(C4=CCN(C#N)CC4)nc3)ncc2Cl)CN1 (stereo not drawn) . State its measured IC50.
> 0.1 µM
